Taken from paper PMC11557435.

measurement-target: SARS-CoV-2 3CLpro (Severe acute respiratory syndrome coronavirus 2)
assay-remarks: biochemical
assay-conditions: single point, 50 μM compound
inhibition at 50 µM for assorted compounds
# value in %; strip the unit string

Examples from the recorded data:
compound | observed-result
COc1ccc(NC(=O)c2ccccc2NC(=O)c2ccc([N+](=O)[O-])c(C)c2)cc1 [Compound 36] | 81.9
CCOc1ccc(NC(=O)C(CC(C)C)NC(=O)C2CCC(C)CC2)cc1 (stereo not drawn) [Compound 34] | 78.3

Qu. // returns reported inhibition at 50 µM for input CCC(CC)C(=O)Nc1cccc(C(=O)Nc2ccccc2C(=O)Nc2ccc(OC)cc2)c1 [Compound 43]
Ans. 84.8

Qu. // returns reported inhibition at 50 µM for input COc1cc(-c2nc3cnccn3c2Nc2cccc(Cl)c2)ccc1O [Compound 10]
Ans. 78

Qu. // returns reported inhibition at 50 µM for input CC[C@H](C)N(Cc1cccc(OC)c1)C[C@@H](O)COc1ccc(OC)cc1 [Compound 1]
Ans. 85.4

Qu. // returns reported inhibition at 50 µM for input CC[C@H](C)[C@H](NC(=O)c1ccc2nc(-n3cccc3)sc2c1)C(=O)NCc1cccnc1 [Compound 5]
Ans. 84
